Where these numbers come from: PubChem BioAssay (NCI)

# Test method notes: NCI Yeast Anticancer Drug Screen. Data for the sgs1 mgt1 strain (AID 161);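 also: 0% = growth of cultures given vehicle only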
# Experimental parameters: S. cerevisiae sgs1 mgt1 strain, at 50.0 µM, hits give high values
The panel holds about 79,000 compounds, 15% with a hit somewhere; the sample as a whole holds those more often.
// label = fulfilled if growth inhibition is not less than 10%, otherwise not fulfilled

>>> group_label("COC(=O)NN=C1C(C)(C)C(=O)C1(C)C")
"not fulfilled"
>>> group_label("Cc1cc(C)c2ccccc2n1")
"not fulfilled"
>>> group_label("CCOP(=O)(OCC)/C(C#N)=C/c1cc(OC)ccc1OC")
"not fulfilled"
>>> group_label("O=C(O)c1sccc1-c1cccc2ccccc12")
"fulfilled"
>>> group_label("Cc1ccccc1C(N)=O")
"fulfilled"
>>> group_label("CC(O)c1cc2c(s1)C(=O)c1sccc1C2=O (stereo not drawn)")
"fulfilled"
>>> group_label("O=C1CN(CCN2CCCCC2)CC(=O)N2Cc3ccccc3CN12")
"fulfilled"
>>> group_label("CC(=O)C(C)O (stereo not drawn)")
"not fulfilled"
>>> group_label("COc1cccc(C2C(C(=O)O)=C(CO)Oc3cc4c(cc32)OCO4)c1 (stereo not drawn)")
"fulfilled"
>>> group_label("O=C(NC(Cc1ccccc1)C(=O)O)c1ccccc1 (stereo not drawn)")
"fulfilled"
>>> group_label("CC1(C)OC2C(CO)OC(n3ccc(N)nc3=O)C2O1 (stereo not drawn)")
"not fulfilled"
>>> group_label("N#[N+]c1ccc(Nc2ccccc2)cc1")
"not fulfilled"
>>> group_label("CN(C)C(=O)Nc1cccc(OC(=O)NC2CC2)c1")
"fulfilled"

----------
# Test method notes: NCI Yeast Anticancer Drug Screen. Data for the sgs1 mgt1 strain (AID 161);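 also: 0% = growth of cultures given vehicle only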
# Experimental parameters: S. cerevisiae sgs1 mgt1 strain, at 50.0 µM
The panel holds about 79,000 compounds, 15% with a hit somewhere; the sample as a whole holds those more often. Active and inactive are the calls of the source. Cut-off read from the data, not from the text of the source: active = growth inhibition above about 70%; inactive = the rest.
Possible outcomes: active, inactive

>>> group_label("CCCC(=O)Nc1ccc(N=Nc2ccccc2)cc1")
"inactive"
>>> group_label("CCOC(=O)C1C(c2ccc(N(C)C)cc2)c2cc3c(cc2OC1(C)N1CCCC1)OCO3 (configuration not stated)")
"inactive"
>>> group_label("CCOc1ccc(N=C2NC(=O)C(CC(=O)Nc3ccc(Cl)cc3Cl)S2)cc1 (configuration not stated)")
"inactive"
>>> group_label("O=CNc1ccc(Br)cc1")
"inactive"
>>> group_label("S=C(NNC(=S)Nc1ccccc1Cl)NNc1ccccc1")
"active"
>>> group_label("CC(=O)CC(C)=Nc1ccc([N+](=O)[O-])cc1")
"inactive"
>>> group_label("CCCNS(=O)(=O)c1ccccc1C(=O)NC1CCCCC1")
"inactive"
>>> group_label("C/C(C=C(C#N)C#N)=C\\c1ccccc1")
"inactive"
>>> group_label("CCCC(C(C)=O)C(C)=O")
"inactive"
>>> group_label("N#Cc1nc(Nc2ccc([N+](=O)[O-])cc2)sc1N")
"inactive"
>>> group_label("CN(CC#N)[C@H]1CCC[C@]1(O)C#C[Si](C)(C)c1ccccc1")
"inactive"
>>> group_label("COc1ccc(C(=O)C(C(=O)CCC(=O)Nc2cccc(Cl)c2)c2ccc(OC)cc2)cc1 (configuration not stated)")
"inactive"

----------
growth inhibition overview
# Test method notes: NCI Yeast Anticancer Drug Screen. Data for the sgs1 mgt1 strain (AID 161);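 also: 0% = growth of cultures given vehicle only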
# Experimental parameters: S. cerevisiae sgs1 mgt1 strain, at 50.0 µM, hits give high values
Compounds without any hit were thinned out: in the full panel of roughly 79,000, 15% have a hit. Where a SMILES comes first, the peptide text is derived from it. [ ]: non-standard residue; d: D form. The star is where a group is joined. ξ: configuration not given here. Cbz = O=C(OCc1ccccc1)*; ξNva = CCCC(N)C(=O)O
Quantity name: growth inhibition (%)

>>> recorded_value("Cc1nc2c(o1)C(=O)c1ccccc1C2=Nc1ccc(N2CCOCC2)cc1")
13.2
>>> recorded_value("Clc1ccccc1OCc1cnc[nH]1")
-14.9
>>> recorded_value("COC(=O)C(N)Cc1ccc(OC)cc1 (configuration not stated)")
8.1
>>> recorded_value("CCCC(NC(=O)OCc1ccccc1)C(=O)NCC(=O)NCC(=O)OC (stereo not drawn) (Cbz-[ξNva]-Gly-Gly-OMe)")
12.2
>>> recorded_value("O/N=C/c1ccccc1O")
-0.3
>>> recorded_value("OC1(c2ccc(F)cc2)CCNCC1")
33.9
>>> recorded_value("C=CCOC(=O)Oc1ccc(Cl)cc1Cl")
3.3
>>> recorded_value("COc1cc2c(cc1Oc1c(O)c(OC)cc3c1C(C)N(C)CC3)C(C)N(C)CC2 (configuration not stated)")
2.4
>>> recorded_value("COc1cc(C(=O)O)c(C(=O)O)cc1OC")
20.5
>>> recorded_value("C=CCN1COc2c(cc3c4c(cccc24)C(=O)O3)C1")
10.1
>>> recorded_value("O=C(Nc1cccc(Cl)c1Cl)c1cc(/C=C/c2ccc([N+](=O)[O-])cc2)on1")
-12.8
>>> recorded_value("O=Cc1cccc2ccc3cccc(C(=O)O)c3c12")
17.9
>>> recorded_value("COc1ccc(C(=O)OC2CCCN(C(=O)c3ccc(OC)cc3)C2)cc1 (configuration not stated)")
0.8
>>> recorded_value("CC(C)(C)c1cc(Nc2c([N+](=O)[O-])cc([N+](=O)[O-])cc2[N+](=O)[O-])cc(C(C)(C)C)c1O")
2.65
>>> recorded_value("COc1ccc(C(C)=C(C#N)C#N)cc1")
-5.65
>>> recorded_value("CC12CCC(CC1)C(C)(C)N=C(N)S2")
-2.75
>>> recorded_value("CC1=C(O)c2cn(C)cc2C(=O)C1=O")
18
>>> recorded_value("O=C(CCc1nnc2s/c(=C\\c3ccccc3Cl)c(=O)n12)Nc1cc(Cl)ccc1Cl")
-36.8
>>> recorded_value("COc1cc(NS(C)(=O)=O)ccc1Nc1c2ccc(N(C)C)cc2nc2cc(N(C)C)ccc12")
1.05
>>> recorded_value("CCc1cc(Cl)c(O)c(Cl)c1")
6.2
>>> recorded_value("CC(=O)/C(C(=N)C(=O)c1ccccc1)=C(\\C)O")
3.5
>>> recorded_value("NC1C(O)C(N)C(O)C(O)C1O (configuration not stated)")
5.6
>>> recorded_value("c1ccc(CNc2cnccn2)cc1")
-7.75
>>> recorded_value("CNC(=O)/C=C/C1=CN2C(=O)c3ccc(C)c(O)c3NC(OC)C2C1 (configuration not stated)")
93
>>> recorded_value("Nc1c(N=Nc2ccc(S(=O)(=O)O)cc2)cc2c3c(cccc13)CC2")
20.6
>>> recorded_value("CCCCCCCCCCCCCCCCSc1ccc(S(=O)(=O)N(C)C)cc1N")
3.15
>>> recorded_value("O=C1CCCCc2ccccc21")
-7.95
>>> recorded_value("COC(=O)C1CC[N-]CC1.COC(=O)C1CC[N-]CC1.[Cl][Pt+2][Cl]")
-6.8
>>> recorded_value("CC(C)(Oc1ccc(C(=O)c2ccc(Cl)cc2)cc1Cl)C(=O)N1CCN(CCO)CC1")
15.9
>>> recorded_value("O=c1[nH]cnc2c1nnn2CCCCCCCCCCCCn1nnc2c(=O)[nH]cnc21")
4.5
>>> recorded_value("N#CCCOCC(COCCC#N)(COCCC#N)COCCC#N")
-7.55
>>> recorded_value("CNc1c(F)cc(N=Nc2ccccc2)cc1F")
30
>>> recorded_value("CCOC(=O)NCC(C)(C)C")
6.5
>>> recorded_value("NC(=O)C(=O)CC(=O)c1ccccc1NC1=CC(=O)C(=O)c2ccccc21")
20.4
>>> recorded_value("CCCCc1c(O)c(N=NC(=O)C[N+](C)(C)C)c2ccccc2c1O")
22.8
>>> recorded_value("COc1ccccc1NC(=O)N(Cc1ccccc1)C(C)(C)C")
30.4
>>> recorded_value("COC(=O)C1=C(C(=O)OC)C2(C3C(SC)=CC(C)(C)CC3S1)N(Cc1ccccc1)CCN2Cc1ccccc1 (configuration not stated)")
-9.95

----------
# Test method notes: NCI Yeast Anticancer Drug Screen. Data for the mlh1 rad18 strain (AID 175)
# Experimental parameters: S. cerevisiae mlh1 rad18 strain growth inhibition; at 50.0 µM; hits give high values
This is part of a sample that, as a whole, favours compounds with a hit. Of some 79,000 tested, about 15% had one in any assay.
Quantity name: growth inhibition (%)

>>> recorded_value("CC(=O)OCC(=O)COC(C)=O")
-8.55
>>> recorded_value("Cc1cc2c(=O)cc(-c3ccc(Cl)cc3Cl)oc2c(C(=O)O)c1C")
29.5
>>> recorded_value("CCOC(=O)Cc1csc2[n+]1C(=O)/C(=C/c1cccc(OC)c1O)S2")
38.2
>>> recorded_value("CC(C(=O)O)C(C)C(=O)Nc1ccccc1 (stereo not drawn)")
28.4
>>> recorded_value("Cc1ccccc1NC(=O)CSC#N")
8.75
>>> recorded_value("O=C(NC(CS)C(=O)O)c1cnc2ccccc2n1 (stereo not drawn)")
0.3
>>> recorded_value("COC1CC(N=[N+]=[N-])C(OC(=O)c2ccccc2)C(CBr)O1 (stereo not drawn)")
19.6
>>> recorded_value("CC(=O)OCCOCNC(=S)N/N=C/c1cc([N+](=O)[O-])ccc1O")
-0.05
>>> recorded_value("CCCCC(CCCC)NCC(C)OC(=O)c1ccc(N)cc1 (stereo not drawn)")
16.3
>>> recorded_value("CCCCCCCCCCCCNC(=O)c1ccccc1O")
35.8
>>> recorded_value("O=C(CC(C(=O)c1ccsc1)c1cccs1)c1ccsc1 (stereo not drawn)")
3
>>> recorded_value("CCOC(=O)CCC(=O)Oc1cccc2c1C(=O)c1c(OC(=O)CCC(=O)OCC)cccc1C2=O")
47.7
>>> recorded_value("CSc1ccc(NC(=S)NN(C)C)cc1")
-7.65
>>> recorded_value("C[Si](C)(C)C#CCOC=C1CC1")
-34.5
>>> recorded_value("O=C1c2ccccc2Cc2ccccc21")
7.55
>>> recorded_value("NC1=CCNN1")
14.4
>>> recorded_value("CC(=O)Nc1ccc(C(=O)N2C(=N)C(C#N)=C(O)/C2=C\\c2ccc(Cl)c(Cl)c2)cc1")
2.15
>>> recorded_value("CCc1c(C)[nH]c(C2=NCCC2)c1C")
-25.1
>>> recorded_value("CCN(CC)Cc1cc(Nc2ncnc3sc(C)c(C)c23)ccc1O")
-15.7
>>> recorded_value("Cc1ccc(C)c(NC(=O)Nc2cccc(Cl)c2)c1")
-7.65
>>> recorded_value("FC(F)(F)c1ccc(C=NC23CC4CC(CC(C4)C2)C3)cc1")
-30.9
>>> recorded_value("CCOC(=O)CC(=O)c1ccc(Cl)cc1")
-7.65
>>> recorded_value("CCOC(=O)c1ccc(NC(=O)CCCCCCCCC(=O)Nc2ccc(C(=O)OCC)cc2)cc1")
-6.95
>>> recorded_value("CS/N=C(\\c1ccccc1)N1CCOCC1")
5.2
>>> recorded_value("Fc1ccc(CC(F)F)cc1")
3.25
>>> recorded_value("Nc1cc([N+](=O)[O-])ccc1-c1ccc([N+](=O)[O-])cc1")
-8.85
>>> recorded_value("Cn1c(=O)c2[nH]c(=S)n(C)c2n(C)c1=O")
15.5
>>> recorded_value("O=C(O)CCCc1ccc(Oc2ccccc2)cc1")
-6.6
>>> recorded_value("O=C1CCC(=O)O1")
-51.9
>>> recorded_value("O=C(O)C(CCCN1C(=O)c2ccccc2C1=O)N1C(=O)c2ccccc2C1=O (stereo not drawn)")
-6.95
>>> recorded_value("CCOC(=O)C(O)(NC(=O)c1ccc(F)cc1)C(F)(F)F (stereo not drawn)")
-23.9
>>> recorded_value("COc1ccccc1C(=O)C1OC1c1ccc(Cl)cc1Cl (stereo not drawn)")
5.05
>>> recorded_value("O=C(O)/C=C(/Oc1ccccc1)c1ccccc1")
-3.55
>>> recorded_value("COc1ccc(C(=O)Nc2c(N)ncnc2N)cc1")
15.1
>>> recorded_value("CCCOC(=O)CC(CC(=O)OCCC)C(=O)OCCC")
-2.5
>>> recorded_value("Cc1cc(=O)[nH]c2c(C)cccc12")
16.6
>>> recorded_value("O=S1CCS(=O)CCS(=O)CC1 (stereo not drawn)")
-9.7
>>> recorded_value("COc1ccc(S(=O)c2coc3ccccc3c2=O)cc1 (stereo not drawn)")
20.9
>>> recorded_value("O=C(O)c1cccc(S(=O)(=O)NCCO)c1")
8.5
>>> recorded_value("OCC(O)C(O)C(O)C(SCc1ccccc1)SCc1ccccc1 (stereo not drawn)")
-12.6
>>> recorded_value("CNCSc1ccccc1")
-1.45
>>> recorded_value("C=CCN1C(C)(C)NC(=S)C1(C)C")
-2.35
>>> recorded_value("CC(=O)Nc1c([N+](=O)[O-])cc(C2CCCCC2)cc1[N+](=O)[O-]")
-9.85
